target or system: KRas wild type (Homo sapiens (Human), UniProt P01116)
Sequence (P01116-2 other isoform, or with tags, fused parts or gaps): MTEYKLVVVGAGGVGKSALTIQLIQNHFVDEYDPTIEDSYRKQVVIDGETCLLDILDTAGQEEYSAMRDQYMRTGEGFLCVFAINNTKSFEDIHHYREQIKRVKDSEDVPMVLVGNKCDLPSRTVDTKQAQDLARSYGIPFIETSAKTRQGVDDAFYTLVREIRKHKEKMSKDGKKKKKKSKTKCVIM
procedure details: Ras GTP binding domain inhibition assay (labeled GTP)
assay conditions: 20 μM compound; read-out: % Inhibition at 20 μM KRas wild type
Listing of recorded inhibition at 20 µM by entry.

N#Cc1ccc(COCC(=O)Nc2nc(-c3ccccn3)nc3sccc23)cc1 [drawing 2799]	25 to 50%
O=C(c1csc2c(O)nc(-c3ccccn3)nc12)N1CCC(N2CCCC2=O)CC1 [drawing 2679]	51 to 75%
Oc1nc(-c2ccccn2)nc2c(-c3ccc(OC(F)F)cc3F)csc12 [drawing 2876]	51 to 75%
O=C(c1ccccn1)N1CCCc2c(O)nc(-c3ccccn3)nc21 [drawing 2655]	25 to 50%

Prompt: Check the records and state inhibition at 20 µM for Nc1nc(-c2ccccn2)nc2c(-c3ccccc3)csc12 [drawing 2859]
Completion: 25 to 50%

Prompt: Check the records and state inhibition at 20 µM for CC1(O)CCN(C(=O)c2csc3c(O)nc(-c4ccccn4)nc23)CC1 [drawing 2683]
Completion: 51 to 75%

Prompt: Check the records and state inhibition at 20 µM for COCCC(C)Nc1nc(-c2ccccn2)nc2sccc12 (stereo not shown) [drawing 2709]
Completion: 1 to 25%

Prompt: Check the records and state inhibition at 20 µM for O=C(COCc1cccnc1)Nc1nc(-c2ccccn2)nc2sccc12 [drawing 2829]
Completion: 51 to 75%

Prompt: Check the records and state inhibition at 20 µM for O=C(OCCc1cccnc1)N1CCCc2c(O)nc(-c3ccccn3)nc21
Completion: 25 to 50%

Prompt: Check the records and state inhibition at 20 µM for Cc1cnc(-c2ccccn2)nc1NC(=O)Cc1ccc2cnccc2c1 [drawing 2856]
Completion: 51 to 75%

Prompt: Check the records and state inhibition at 20 µM for Oc1nc(-c2ccccn2)nc2sc3c(c12)CCCNC3 [drawing 2852]
Completion: 25 to 50%

Prompt: Check the records and state inhibition at 20 µM for O=C(c1csc2c(O)nc(-c3ccccn3)nc12)N1CCOC(c2ccccc2F)C1 (stereo not shown)
Completion: 76 to 100%

====

Listing of recorded inhibition at 20 µM by entry.
target or system: KRas G12D/Q61H double mutant (Homo sapiens (Human), UniProt P01116, G12D/Q61H)
Sequence (P01116-2 other isoform, or with tags, fused parts or gaps G12D/Q61H): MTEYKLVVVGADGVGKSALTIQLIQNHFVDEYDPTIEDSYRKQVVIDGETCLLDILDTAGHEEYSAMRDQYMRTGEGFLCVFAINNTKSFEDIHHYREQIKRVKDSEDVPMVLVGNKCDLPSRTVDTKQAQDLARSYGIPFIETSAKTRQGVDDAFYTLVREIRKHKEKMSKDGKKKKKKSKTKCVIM
procedure details: Ras GTP binding domain inhibition assay (labeled GTP)
assay conditions: 20 μM compound; read-out: % Inhibition at 20 μM KRas G12D Q61H

Prompt: Check the records and state inhibition at 20 µM for C=CCCOC(C)C(=O)Nc1nnc(-c2ccccn2)[nH]1 (stereo not shown)
Completion: 25 to 50%

Prompt: Check the records and state inhibition at 20 µM for COCc1ccc(-c2csc3c(O)nc(-c4ccccn4)nc23)cc1F [drawing 2846]
Completion: 51 to 75%

Prompt: Check the records and state inhibition at 20 µM for O=C(c1csc2c(O)nc(-c3ccccn3)nc12)N1CCOC(c2ccccc2Cl)C1 (stereo not shown) [drawing 2769]
Completion: 51 to 75%

Prompt: Check the records and state inhibition at 20 µM for O=C(COCc1cccnc1)Nc1nc(-c2ccccn2)nc2sccc12 [drawing 2829]
Completion: 51 to 75%

Prompt: Check the records and state inhibition at 20 µM for COc1ccc(CC(=O)Nc2nc(-c3ccccn3)cs2)cc1OC
Completion: 25 to 50%

Prompt: Check the records and state inhibition at 20 µM for N#Cc1ccc(-c2nnc(CN3CCOc4ccccc4C3)o2)cc1
Completion: 25 to 50%

Prompt: Check the records and state inhibition at 20 µM for Cc1cc(C2CCCN2c2nccc(C(F)(F)F)n2)no1 (stereo not shown)
Completion: 25 to 50%

Prompt: Check the records and state inhibition at 20 µM for O=C(NCCc1cncs1)c1csc2nc(-c3ccccn3)nc(N3CCOCC3)c12 [drawing 2749]
Completion: 1 to 25%

Prompt: Check the records and state inhibition at 20 µM for Cc1nccc(-c2nc3cc(F)ccc3c(=O)[nH]2)n1
Completion: 76 to 100%

Prompt: Check the records and state inhibition at 20 µM for O=C(NCCc1nnn[nH]1)c1csc2nc(-c3ccccn3)nc(N3CCOCC3)c12 [drawing 2786]
Completion: 1 to 25%
